Test system: Saccharomyces cerevisiae;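 further: PSI is a weighted mean of sequencing reads over stability bins, variants kept only with over 10 reads, mCherry proximal and sfGFP distal, peptide attached via GGGS linker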
EXPERIMENTAL DETAILS: protein stability index of tFT-peptide fusion (C-terminal peptide) (PSI (0-1 scale)); higher = more stable (slower turnover)
SETTINGS: genetic background: wild type; temperature: 30 C
I'd appreciate it if you could supply protein stability index values for the items below.
Give bare numbers.

Below, each entry is followed by its recorded protein stability index result.
# SEQ TEXT, RECORDED RESULT
data = [
    ("PPPPPPLPPSPL", 0.634),
    ("RRTRRSTGHATG", 0.665),
    ("GPFWPGRFGFLC", 0.616),
    ("AVLGGAGGGWAG", 0.687),
    ("GGGGGGGVGMMW", 0.738),
    ("HYEIFSCDPGCD", 0.746),
    ("EKKRQKKQKTGK", 0.671),
    ("LLDLYTLSRLDP", 0.754),
    ("KKETKLKKTEVK", 0.69),
    ("PSPRPPPSPPLP", 0.695),
]

Please look at the items below and tell me protein stability index for each one, in order.
1. GGRAWRWVARVG
2. IPSRALSCLLPC
3. GSMCYRTVTNLR
4. LVVGGLVLSGNL
5. RFPFFLPFIAFL

### Response
[0.673, 0.66, 0.593, 0.668, 0.37]
